target-of-assay: Cyclin-dependent kinase 9 (Homo sapiens) (UniProt P50750)
Sequence (P50750 whole entry): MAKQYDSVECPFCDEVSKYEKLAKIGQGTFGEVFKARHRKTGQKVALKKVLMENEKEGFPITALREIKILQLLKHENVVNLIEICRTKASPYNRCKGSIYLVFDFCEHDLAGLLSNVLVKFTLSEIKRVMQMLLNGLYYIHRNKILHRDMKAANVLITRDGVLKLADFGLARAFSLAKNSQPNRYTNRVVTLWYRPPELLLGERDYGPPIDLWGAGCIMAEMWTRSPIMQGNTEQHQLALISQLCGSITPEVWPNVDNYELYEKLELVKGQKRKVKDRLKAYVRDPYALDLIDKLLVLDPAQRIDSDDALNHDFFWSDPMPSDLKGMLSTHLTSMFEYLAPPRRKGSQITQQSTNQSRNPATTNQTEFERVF
assay-context: dose 100.0 nM
Description: Inhibition of CDK9 (unknown origin) using caliper substrate CTD3 at 100 nM by mobility shift assay relative to control
endpoint: inhibition (%)
Respond with the bare value in %.

Form: compound = `Cc1n[nH]c(C2CC2)c1-c1ccnc(Nc2ccc3c(c2)N(C(C)C)[C@H](C)C(=O)N3C)n1` ; inhibition = 12

Documented inhibition of `Cc1cc(-c2ccnc(Nc3ccc4c(c3)N(C(C)C)[C@H](C)C(=O)N4C)n2)n(C)n1` : -0.4

Please fill in: inhibition reported for `CCc1n[nH]c(C2CC2)c1-c1ccnc(Nc2ccc3c(c2)N(C(C)C)[C@H](C)C(=O)N3C)n1` = 5.9

Per the record, `Cc1c(-c2nc(Nc3ccc4c(c3)N(C(C)C)[C@H](C)C(=O)N4C)ncc2Cl)c(C2CC2)nn1C` has inhibition of 23

Looking up `CCn1cc(-c2ccnc(Nc3ccc4c(c3)N(C(C)C)[C@H](C)C(=O)N4C)n2)c(C)n1` , I see its inhibition listed as 9.4

Input `CC(C)N1c2cc(Nc3nccc(-c4c[nH]nc4-c4ccccc4)n3)ccc2N(C)C(=O)[C@H]1C` . Output inhibition: 23

Quick note, inhibition for `Cc1c(-c2nc(Nc3ccc4c(c3)N(C(C)C)[C@H](C)C(=O)N4C)ncc2F)c(C2CC2)nn1C` landed at 15

Form field inhibition, entry `Cc1nn(C(C)C)cc1-c1ccnc(Nc2ccc3c(c2)N(C(C)C)[C@H](C)C(=O)N3C)n1` : 2.5

###

target-of-assay: Bromodomain-containing protein 4 (Homo sapiens, UniProt O60885)
procedure-summary: Inhibition of BRD4 BD1 (unknown origin)
endpoint: pIC50
API: returns pIC50 as number; meaning -log10 of concentration in mol/L.

Reported pIC50 ( CC(C)N1c2cc(Nc3nccc(-c4ccccc4)n3)ccc2N(C)C(=O)C1C (stereo unspecified) ) = 6.71

###

target-of-assay: Bromodomain-containing protein 2 (Homo sapiens)
procedure-summary: Inhibition of BRD2 BD2 (unknown origin) incubated for 2 to 4 hrs under dark condition by FP assay
endpoint: IC50 (µM)
Dear colleague, please return just the value in µM, with no unit written.

Per the record, `Cc1c(-c2nc(Nc3ccc4c(c3)N(C(C)C)[C@H](C)C(=O)N4C)ncc2F)c(C2CC2)nn1C` has IC50 of 0.048

###

target-of-assay: Cyclin-dependent kinase 9 (Homo sapiens) (UniProt P50750)
assay-context: dose 100.0 nM
Is inhibition at least 10%? Then condition met. If not, condition not met.

Query string: Has `Cc1cc(Nc2ccnc(Nc3ccc4c(c3)N(C(C)C)[C@H](C)C(=O)N4C)n2)n(C(C)(C)C)n1` a recorded inhibition greater than or equal to 10%?
Result string: condition not met

Query string: Could you tell me if the measured inhibition of `Cc1nn(C)c(C2CC2)c1-c1ccnc(Nc2ccc3c(c2)N(C(C)C)[C@H](C)C(=O)N3C)n1` reaches 10% or more?
Result string: condition not met

Query string: Is inhibition for `Cc1n[nH]c(C)c1-c1ccnc(Nc2ccc3c(c2)N(C(C)C)[C@H](C)C(=O)N3C)n1` at or above 10%?
Result string: condition not met

Query string: Exam item: decide whether the reported inhibition for `Cc1cc(Nc2ccnc(Nc3ccc4c(c3)N(C(C)C)[C@H](C)C(=O)N4C)n2)n(C(C)C)n1` is at least 10%.
Result string: condition not met

Query string: Dear colleague, could you confirm whether `Cc1c(-c2ccnc(Nc3ccc4c(c3)N(C(C)C)[C@H](C)C(=O)N4C)n2)cnn1C` has inhibition at or above 10%?
Result string: condition met

Query string: Determine whether this compound has inhibition no lower than 10%: `CC(C)N1c2cc(Nc3nccc(-c4c[nH]nc4C4CCCC4)n3)ccc2N(C)C(=O)[C@H]1C`
Result string: condition met

Query string: Assess whether reported inhibition for `CC(C)N1c2cc(Nc3nccc(Nc4cc(C(C)(C)C)n[nH]4)n3)ccc2N(C)C(=O)[C@H]1C` sits at 10% or higher.
Result string: condition met

Query string: Threshold query (inhibition >= 10%) on `CC(C)N1c2cc(Nc3nccc(-c4ccn(C)n4)n3)ccc2N(C)C(=O)[C@H]1C`
Result string: condition not met

Query string: Has `CC(C)N1c2cc(Nc3nccc(-c4cn[nH]c4)n3)ccc2N(C)C(=O)[C@H]1C` a recorded inhibition greater than or equal to 10%?
Result string: condition met

###

target-of-assay: Bromodomain-containing protein 2 (Homo sapiens, UniProt P25440)
Sequence (P25440 whole entry): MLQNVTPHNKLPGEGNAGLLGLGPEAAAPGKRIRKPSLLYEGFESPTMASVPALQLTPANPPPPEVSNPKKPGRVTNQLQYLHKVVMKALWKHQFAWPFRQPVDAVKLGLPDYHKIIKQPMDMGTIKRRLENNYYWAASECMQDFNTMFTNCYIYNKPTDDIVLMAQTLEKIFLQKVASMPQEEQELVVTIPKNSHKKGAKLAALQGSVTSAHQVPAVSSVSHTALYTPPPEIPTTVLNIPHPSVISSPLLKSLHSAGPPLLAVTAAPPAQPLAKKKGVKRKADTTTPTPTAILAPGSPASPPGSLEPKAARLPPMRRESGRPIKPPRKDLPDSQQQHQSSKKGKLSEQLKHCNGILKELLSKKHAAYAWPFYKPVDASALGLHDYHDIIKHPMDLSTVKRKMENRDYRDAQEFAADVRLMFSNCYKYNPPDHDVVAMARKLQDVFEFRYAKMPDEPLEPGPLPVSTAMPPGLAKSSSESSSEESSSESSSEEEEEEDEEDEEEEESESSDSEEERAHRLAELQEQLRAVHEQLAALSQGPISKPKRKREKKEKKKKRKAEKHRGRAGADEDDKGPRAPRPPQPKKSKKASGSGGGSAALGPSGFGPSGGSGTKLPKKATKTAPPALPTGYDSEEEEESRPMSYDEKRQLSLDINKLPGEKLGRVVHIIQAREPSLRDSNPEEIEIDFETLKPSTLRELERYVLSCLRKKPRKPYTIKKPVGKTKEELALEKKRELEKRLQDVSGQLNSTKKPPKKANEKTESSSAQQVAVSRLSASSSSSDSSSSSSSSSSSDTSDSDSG
procedure-summary: Inhibition of BRD2 BD1 (unknown origin) incubated for 2 to 4 hrs under dark condition by FP assay
endpoint: pIC50
Please note pIC50 is a logarithmic value: minus log10 of concentration in mol/L. Answer with that number alone.

Reported pIC50 ( `Cc1c(-c2nc(Nc3ccc4c(c3)N(C(C)C)[C@H](C)C(=O)N4C)ncc2F)c(C2CC2)nn1C` ) = 7.46

###

target-of-assay: Cyclin-dependent kinase 9 (Homo sapiens) (UniProt P50750)
assay-context: dose 100.0 nM
Please go through the items and note down their inhibition.
Your answer is read as %, so omit the unit and give the number.

Documented inhibition of `Cc1c(-c2ccnc(Nc3ccc4c(c3)N(C3CCC3)[C@H](C)C(=O)N4C)n2)c(C2CC2)nn1C` : 9.1

Reported inhibition ( `CC[C@@H]1C(=O)N(C)c2ccc(Nc3nccc(-c4c(C5CC5)nn(C)c4C)n3)cc2N1C(C)C` ) = 2.7

For record `Cc1nn(-c2ccccc2)cc1-c1ccnc(Nc2ccc3c(c2)N(C(C)C)[C@H](C)C(=O)N3C)n1` the listed inhibition is 0.9

Short answer for `CC(C)N1c2cc(Nc3nccc(-c4cc[nH]n4)n3)ccc2N(C)C(=O)[C@H]1C` : inhibition was 5.4

GET /value?item= `CC(C)N1c2cc(Nc3nccc(-c4ccnn4C(C)C)n3)ccc2N(C)C(=O)[C@H]1C` &field=inhibition returns 14

Reported inhibition of `Cc1cc(Nc2ccnc(Nc3ccc4c(c3)N(C(C)C)[C@H](C)C(=O)N4C)n2)n(-c2ccccc2)n1` : 5.3

Short answer for `Cc1c(-c2ccnc(Nc3ccc4c(c3)N(C(C)C)[C@H](C)C(=O)N4C)n2)c(C2CC2)nn1C` : inhibition was 6.5

Just so you know, measured inhibition for `CC(C)N1c2cc(Nc3nccc(Nc4cc(-c5ccccc5)nn4C)n3)ccc2N(C)C(=O)[C@H]1C` came out at -1.5

All figures here come from ChEMBL document CHEMBL6096727.
